From: ChEMBL document CHEMBL2046280

// values below are reported pIC50
- System: MV4-11
- experiment summary: Cytotoxicity against FLT3-dependent human MV4-11 cells after 72 hrs by MTT assay
- Assay type: functional, cell-based
- run conditions: MV4-11, 72 h
Remember, pIC50 is on a log scale: it is -log10 of the molar concentration.

Consider the reported pIC50 for these compounds:
O=C(Nc1ccccc1)Nc1nnc(Sc2ncnc3cc(OCCCN4CCOCC4)ccc23)s1 = 8.00
COc1cc2c(Sc3nccs3)ncnc2cc1OCCN1CCOCC1 = 5.52
O=C(Nc1cccc(Cl)c1)Nc1nnc(Sc2ncnc3cc(OCCCN4CCOCC4)ccc23)s1 = 7.92

Ask: Reported pIC50 for MV4-11, given COc1cc2c(Sc3nccs3)ncnc2cc1OCCN1CCCC1 ?
Reply: 5.80

Ask: Similarly, COc1cc2ncnc(Sc3nccs3)c2cc1OCCCN(C)C ?
Reply: 5.95

* * *

// values below are reported log10 IC50
- Test system: MV4-11
- experiment summary: Cytotoxicity against FLT3-dependent human MV4-11 cells after 72 hrs by MTT assay
- Type: functional, cell-based
- run conditions: MV4-11, 72 h
Plainly stated, the numbers are log10 of IC50 given in µM.

Consider the reported log10 IC50 for these molecules:
COCCOc1cc2ncnc(Sc3nnc(NC(=O)Nc4cccc(F)c4)s3)c2cc1OCCOC = -0.40
COCCOc1cc2ncnc(Sc3nncs3)c2cc1OCCOC = 0.13
COCCOc1cc2ncnc(Sc3nnc(NC(=O)Nc4cccc(Cl)c4)s3)c2cc1OCCOC = -1.70
C=CC(=O)Nc1nnc(Sc2ncnc3cc(OCCCN4CCOCC4)ccc23)s1 = 0.78
Cc1ccc(NC(=O)Nc2nnc(Sc3ncnc4cc(OCCCN5CCOCC5)ccc34)s2)cc1 = -2.22

Ask: Reported log10 IC50 for MV4-11, given COc1cc2ncnc(Sc3nccs3)c2cc1OCCCN1CCOCC1 ?
Reply: 0.01

Ask: Similarly, COc1cc2ncnc(Sc3nc(C)cs3)c2cc1OC ?
Reply: 0.57

Ask: Similarly, COc1cc2c(Sc3nccs3)ncnc2cc1OCCN1CCCCC1 ?
Reply: 0.18

* * *

- target desc: Platelet-derived growth factor receptor beta (Homo sapiens)
- Sequence (P09619 whole entry): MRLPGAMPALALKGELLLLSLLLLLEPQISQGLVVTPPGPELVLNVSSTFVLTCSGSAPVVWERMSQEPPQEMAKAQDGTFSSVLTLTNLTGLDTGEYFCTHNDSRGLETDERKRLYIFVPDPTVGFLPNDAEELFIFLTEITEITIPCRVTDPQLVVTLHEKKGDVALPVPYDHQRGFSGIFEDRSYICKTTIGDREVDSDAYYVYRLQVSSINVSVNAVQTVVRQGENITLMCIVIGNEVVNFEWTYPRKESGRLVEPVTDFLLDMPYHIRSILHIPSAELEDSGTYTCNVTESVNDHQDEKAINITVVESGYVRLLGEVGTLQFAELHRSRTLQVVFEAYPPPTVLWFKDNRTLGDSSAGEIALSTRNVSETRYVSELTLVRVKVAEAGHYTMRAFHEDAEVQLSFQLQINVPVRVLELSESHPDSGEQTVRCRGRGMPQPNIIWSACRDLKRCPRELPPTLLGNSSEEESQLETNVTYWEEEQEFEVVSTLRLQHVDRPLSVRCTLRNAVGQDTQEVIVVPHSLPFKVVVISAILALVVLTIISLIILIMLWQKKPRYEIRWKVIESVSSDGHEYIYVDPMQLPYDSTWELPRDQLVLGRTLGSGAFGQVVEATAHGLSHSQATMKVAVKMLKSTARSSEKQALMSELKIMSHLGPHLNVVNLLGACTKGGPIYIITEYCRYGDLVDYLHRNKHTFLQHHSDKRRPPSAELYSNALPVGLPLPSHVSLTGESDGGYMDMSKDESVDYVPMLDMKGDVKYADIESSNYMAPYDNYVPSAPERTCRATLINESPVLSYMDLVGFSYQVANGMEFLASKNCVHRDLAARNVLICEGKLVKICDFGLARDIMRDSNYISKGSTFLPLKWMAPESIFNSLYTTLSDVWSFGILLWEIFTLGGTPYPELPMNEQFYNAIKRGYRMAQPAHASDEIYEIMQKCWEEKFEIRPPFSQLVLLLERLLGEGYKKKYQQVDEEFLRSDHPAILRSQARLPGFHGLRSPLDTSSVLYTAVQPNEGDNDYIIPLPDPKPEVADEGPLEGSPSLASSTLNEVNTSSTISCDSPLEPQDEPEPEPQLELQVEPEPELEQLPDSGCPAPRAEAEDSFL
pIC50: −log10 of the molar value.
endpoint: pIC50

Ask: // query pIC50 value for entry Cc1ccc(NC(=O)Nc2nnc(Sc3ncnc4cc(OCCCN5CCOCC5)ccc34)s2)cc1
Reply: < 5.00

* * *

- Tested on: DU-145
- experiment summary: Cytotoxicity against human DU145 cells after 72 hrs by MTT assay
- run conditions: DU-145, 72 h
endpoint: IC50 (µM)
Supply the numeric figure in µM, leaving out any unit text.

Ask: // query IC50 value for entry Cc1ccc(NC(=O)Nc2nnc(Sc3ncnc4cc(OCCCN5CCOCC5)ccc34)s2)cc1
Reply: 18.6

* * *

- Tested on: LoVo
- experiment summary: Cytotoxicity against human LoVo cells after 72 hrs by MTT assay
endpoint: IC50

Ask: Reported IC50 for LoVo, given Cc1ccc(NC(=O)Nc2nnc(Sc3ncnc4cc(OCCCN5CCOCC5)ccc34)s2)cc1 ?
Reply: > 20 µM

* * *

- target desc: UniProt P07333
- Sequence (P07333 whole entry): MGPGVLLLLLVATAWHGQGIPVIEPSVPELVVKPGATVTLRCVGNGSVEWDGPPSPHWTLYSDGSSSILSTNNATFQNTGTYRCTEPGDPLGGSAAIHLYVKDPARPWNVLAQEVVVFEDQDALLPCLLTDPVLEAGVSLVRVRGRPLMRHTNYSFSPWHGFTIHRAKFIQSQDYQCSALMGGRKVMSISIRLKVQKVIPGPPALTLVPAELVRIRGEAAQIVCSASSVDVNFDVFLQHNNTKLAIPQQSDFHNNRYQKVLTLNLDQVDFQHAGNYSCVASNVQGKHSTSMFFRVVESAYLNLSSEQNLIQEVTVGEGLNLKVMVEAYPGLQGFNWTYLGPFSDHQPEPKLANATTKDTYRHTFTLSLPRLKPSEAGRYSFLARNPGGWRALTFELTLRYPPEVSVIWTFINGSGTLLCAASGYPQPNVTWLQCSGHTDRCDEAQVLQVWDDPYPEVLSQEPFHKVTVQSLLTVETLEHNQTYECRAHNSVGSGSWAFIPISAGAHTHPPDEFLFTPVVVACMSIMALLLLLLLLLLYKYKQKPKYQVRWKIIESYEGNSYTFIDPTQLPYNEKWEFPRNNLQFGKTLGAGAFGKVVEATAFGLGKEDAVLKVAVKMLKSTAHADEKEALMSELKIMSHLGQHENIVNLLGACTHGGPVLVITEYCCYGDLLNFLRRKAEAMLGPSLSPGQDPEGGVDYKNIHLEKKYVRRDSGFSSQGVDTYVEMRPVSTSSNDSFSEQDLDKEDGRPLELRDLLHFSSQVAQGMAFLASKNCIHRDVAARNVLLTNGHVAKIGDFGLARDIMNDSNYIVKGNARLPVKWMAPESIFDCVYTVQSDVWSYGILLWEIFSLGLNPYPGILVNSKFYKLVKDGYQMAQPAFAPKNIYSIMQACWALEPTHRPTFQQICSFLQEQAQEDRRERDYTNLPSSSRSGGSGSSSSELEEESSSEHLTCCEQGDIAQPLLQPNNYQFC
endpoint: IC50 (nM)
Supply the numeric figure in nM, leaving out any unit text.

Ask: // query IC50 value for entry Cc1ccc(NC(=O)Nc2nnc(Sc3ncnc4cc(OCCCN5CCOCC5)ccc34)s2)cc1
Reply: 2800

* * *

- target desc: Receptor-type tyrosine-protein kinase FLT3 (Homo sapiens)
- Sequence (P36888 whole entry): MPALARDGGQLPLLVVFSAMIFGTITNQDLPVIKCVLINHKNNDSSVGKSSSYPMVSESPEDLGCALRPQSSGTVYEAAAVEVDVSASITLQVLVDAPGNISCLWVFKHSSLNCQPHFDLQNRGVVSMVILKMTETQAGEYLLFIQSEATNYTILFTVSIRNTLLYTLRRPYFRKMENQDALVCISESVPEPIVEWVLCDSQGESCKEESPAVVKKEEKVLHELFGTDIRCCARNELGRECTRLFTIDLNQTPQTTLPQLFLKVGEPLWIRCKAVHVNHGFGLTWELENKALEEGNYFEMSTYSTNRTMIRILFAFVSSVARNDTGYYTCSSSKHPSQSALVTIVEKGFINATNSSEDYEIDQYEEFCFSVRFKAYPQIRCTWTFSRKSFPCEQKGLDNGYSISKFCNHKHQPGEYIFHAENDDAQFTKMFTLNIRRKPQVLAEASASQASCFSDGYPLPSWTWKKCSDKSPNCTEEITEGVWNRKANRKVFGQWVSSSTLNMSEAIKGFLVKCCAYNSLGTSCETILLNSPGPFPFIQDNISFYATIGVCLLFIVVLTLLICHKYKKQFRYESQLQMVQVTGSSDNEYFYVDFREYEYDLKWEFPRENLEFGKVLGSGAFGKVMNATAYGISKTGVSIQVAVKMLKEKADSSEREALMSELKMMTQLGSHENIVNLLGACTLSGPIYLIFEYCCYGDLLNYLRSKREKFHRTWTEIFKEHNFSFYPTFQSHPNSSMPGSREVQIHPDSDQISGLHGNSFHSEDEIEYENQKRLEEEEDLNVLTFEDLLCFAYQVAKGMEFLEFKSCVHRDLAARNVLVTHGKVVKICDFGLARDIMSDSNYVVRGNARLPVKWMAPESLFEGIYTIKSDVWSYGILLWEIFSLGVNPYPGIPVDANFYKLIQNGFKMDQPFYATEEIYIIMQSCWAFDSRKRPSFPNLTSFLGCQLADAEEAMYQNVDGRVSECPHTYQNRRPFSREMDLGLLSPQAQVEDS
endpoint: IC50
Answer format: number, then unit.

Ask: // query IC50 value for entry COc1cc2ncnc(Sc3nccs3)c2cc1OC
Reply: 7 nM

* * *

- Tested on: SH-SY5Y
- experiment summary: Cytotoxicity against human SH-SY5Y cells after 72 hrs by MTT assay
endpoint: IC50

Ask: Reported IC50 for SH-SY5Y, given Cc1ccc(NC(=O)Nc2nnc(Sc3ncnc4cc(OCCCN5CCOCC5)ccc34)s2)cc1 ?
Reply: > 20 µM

* * *

- Tested on: MV4-11
- experiment summary: Cytotoxicity against FLT3-dependent human MV4-11 cells after 72 hrs by MTT assay
- Assay type: functional, cell-based
- run conditions: MV4-11, 72 h
// values below are reported IC50
Supply the numeric figure in nM, leaving out any unit text.

Consider the reported IC50 for these compounds:
COCCOc1cc2ncnc(Sc3nc(CC(=O)Nc4cccc(C(F)(F)F)c4)cs3)c2cc1OCCOC = 830
CCN(CC)CCNC(=O)c1c(C)[nH]c(/C=C2\C(=O)Nc3ccc(F)cc32)c1C = 3
COCCOc1cc2ncnc(Sc3nc(C)c(CC(=O)Nc4cccc(C(F)(F)F)c4)s3)c2cc1OCCOC = 25

Turning now to a further compound:
Ask: // query IC50 value for entry COCCOc1cc2ncnc(Sc3nc(C)c(CC(=O)Nc4ccc(C(F)(F)F)cc4)s3)c2cc1OCCOC
Reply: 27

* * *

- Test system: A549
- experiment summary: Cytotoxicity against human A549 cells after 72 hrs by MTT assay
- run conditions: A549, 72 h
endpoint: IC50

Ask: // query IC50 value for entry Cc1ccc(NC(=O)Nc2nnc(Sc3ncnc4cc(OCCCN5CCOCC5)ccc34)s2)cc1
Reply: > 20 µM

* * *

Target chain: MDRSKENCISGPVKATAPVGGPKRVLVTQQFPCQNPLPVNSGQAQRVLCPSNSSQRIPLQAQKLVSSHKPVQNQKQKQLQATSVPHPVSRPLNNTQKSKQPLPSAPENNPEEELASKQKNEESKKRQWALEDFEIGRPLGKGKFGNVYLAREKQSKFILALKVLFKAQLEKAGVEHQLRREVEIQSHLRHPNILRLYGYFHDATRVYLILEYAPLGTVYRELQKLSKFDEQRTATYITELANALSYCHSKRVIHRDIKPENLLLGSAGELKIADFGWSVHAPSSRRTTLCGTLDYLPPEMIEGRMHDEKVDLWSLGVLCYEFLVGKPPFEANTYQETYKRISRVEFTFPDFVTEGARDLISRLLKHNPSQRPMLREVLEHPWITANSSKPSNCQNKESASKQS
endpoint: IC50
Answer format: number, then unit.

Ask: // query IC50 value for entry Cc1ccc(NC(=O)Nc2nnc(Sc3ncnc4cc(OCCCN5CCOCC5)ccc34)s2)cc1
Reply: 1.5 µM

* * *

- System: HeLa
- experiment summary: Cytotoxicity against human HeLa cells after 72 hrs by MTT assay
endpoint: IC50

Ask: // query IC50 value for entry Cc1ccc(NC(=O)Nc2nnc(Sc3ncnc4cc(OCCCN5CCOCC5)ccc34)s2)cc1
Reply: > 20 µM

* * *

- Test system: MDA-MB-231
- experiment summary: Cytotoxicity against human MDA-MB-231 cells after 72 hrs by MTT assay
- run conditions: MDA-MB-231, 72 h
pIC50: −log10 of the molar value.
endpoint: pIC50

Ask: // query pIC50 value for entry Cc1ccc(NC(=O)Nc2nnc(Sc3ncnc4cc(OCCCN5CCOCC5)ccc34)s2)cc1
Reply: < 4.70

* * *

- target desc: Vascular endothelial growth factor receptor 3 (Homo sapiens, UniProt P35916)
- Sequence (P35916 whole entry): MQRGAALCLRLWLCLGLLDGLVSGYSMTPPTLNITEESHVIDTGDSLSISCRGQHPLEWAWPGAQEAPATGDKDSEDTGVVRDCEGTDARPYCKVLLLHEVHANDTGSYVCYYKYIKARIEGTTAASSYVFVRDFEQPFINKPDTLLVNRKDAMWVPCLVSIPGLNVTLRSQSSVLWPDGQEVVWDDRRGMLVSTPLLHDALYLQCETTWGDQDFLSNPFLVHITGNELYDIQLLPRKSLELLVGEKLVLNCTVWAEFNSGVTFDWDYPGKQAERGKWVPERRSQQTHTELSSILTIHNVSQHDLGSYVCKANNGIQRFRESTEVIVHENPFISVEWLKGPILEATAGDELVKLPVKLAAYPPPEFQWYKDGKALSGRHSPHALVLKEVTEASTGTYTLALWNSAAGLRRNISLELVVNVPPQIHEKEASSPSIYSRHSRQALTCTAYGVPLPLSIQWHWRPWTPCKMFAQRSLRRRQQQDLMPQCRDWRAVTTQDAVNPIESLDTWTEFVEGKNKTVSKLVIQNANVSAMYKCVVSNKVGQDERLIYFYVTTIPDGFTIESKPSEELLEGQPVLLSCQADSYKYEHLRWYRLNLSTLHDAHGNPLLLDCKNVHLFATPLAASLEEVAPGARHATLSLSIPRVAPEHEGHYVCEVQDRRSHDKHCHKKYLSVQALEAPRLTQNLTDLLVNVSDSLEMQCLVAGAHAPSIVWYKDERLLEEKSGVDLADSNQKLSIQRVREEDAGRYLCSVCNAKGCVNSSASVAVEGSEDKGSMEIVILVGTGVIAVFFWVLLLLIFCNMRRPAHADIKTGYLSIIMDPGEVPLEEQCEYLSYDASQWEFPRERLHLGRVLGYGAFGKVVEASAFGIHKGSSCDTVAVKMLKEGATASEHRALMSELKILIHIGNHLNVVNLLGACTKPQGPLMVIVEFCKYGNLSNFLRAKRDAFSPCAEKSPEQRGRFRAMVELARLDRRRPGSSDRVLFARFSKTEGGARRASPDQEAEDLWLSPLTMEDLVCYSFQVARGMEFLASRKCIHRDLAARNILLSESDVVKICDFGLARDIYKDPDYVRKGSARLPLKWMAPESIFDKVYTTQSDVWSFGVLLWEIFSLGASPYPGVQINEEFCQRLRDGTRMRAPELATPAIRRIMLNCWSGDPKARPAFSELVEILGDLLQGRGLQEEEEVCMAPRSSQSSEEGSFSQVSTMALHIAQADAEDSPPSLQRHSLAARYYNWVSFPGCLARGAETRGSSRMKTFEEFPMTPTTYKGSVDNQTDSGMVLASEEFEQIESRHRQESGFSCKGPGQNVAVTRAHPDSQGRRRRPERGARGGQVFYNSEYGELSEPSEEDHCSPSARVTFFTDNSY
endpoint: IC50 (µM)
Supply the numeric figure in µM, leaving out any unit text.

Ask: // query IC50 value for entry Cc1ccc(NC(=O)Nc2nnc(Sc3ncnc4cc(OCCCN5CCOCC5)ccc34)s2)cc1
Reply: 3.7
